Experiment: ATG_GRE_CIS: Attagene CIS-FACTORIAL HepG2 Assay for human Glucocorticoid Response Elements (GRE) (AID 2282947)
Conditions: HepG2 GRE cis-reporter, Attagene multiplex mRNA; actives raise or lower the signal
Active and inactive are the calls of the source. Rule for the calls: active = hit-call score of the fitted dose curve at least 0.9, where 1 is the maximum; inactive = score below 0.9.
Respond with a class label; see active, inactive

Check out these entries, answers already filled in.
CC1(C)O[C@@H]2C[C@H]3[C@@H]4C[C@H](F)C5=CC(=O)C=C[C@]5(C)[C@@]4(F)[C@@H](O)C[C@]3(C)[C@]2(C(=O)CO)O1; active
CC(=O)[C@@]1(O)CC[C@H]2[C@@H]3C[C@H](C)C4=CC(=O)C=C[C@]4(C)[C@@]3(F)[C@@H](O)C[C@@]21C; active
CCCC(C)CCC(C)=O (stereo not drawn); inactive
CCOC(=O)c1ccccc1C(=C1C=C(Br)C(=O)C(Br)=C1)c1cc(Br)c(O)c(Br)c1; inactive
CO[Si](CCC1CCC2OC2C1)(OC)OC (stereo not drawn); inactive
COc1ccc(C(Cl)=C(c2ccc(OC)cc2)c2ccc(OC)cc2)cc1; inactive

# input Just curious, what result did OC1CCCC1 get here?
# output inactive

# input Just curious, what result did CCOC(=O)N1CCC(=C2c3ccc(Cl)cc3CCc3cccnc32)CC1 get here?
# output inactive

# input Just curious, what result did ON(Cc1ccccc1)Cc1ccccc1 get here?
# output inactive

# input Just curious, what result did OCCN(CCO)c1ccccc1 get here?
# output inactive

# input Just curious, what result did COC(=O)/C=C\C(=O)O get here?
# output inactive

# input Just curious, what result did CC(CC=O)CCCC(C)(C)O (stereo not drawn) get here?
# output inactive

# input Just curious, what result did C=C(C)C(=O)OCCO get here?
# output inactive

These data points were gathered from PubChem BioAssay (EPA / NIEHS).
